study.system: CB1 (Homo sapiens, UniProt P21554)
Construct: purchased DiscoveRx (Fremont, CA, USA)
Sequence (P21554 whole entry): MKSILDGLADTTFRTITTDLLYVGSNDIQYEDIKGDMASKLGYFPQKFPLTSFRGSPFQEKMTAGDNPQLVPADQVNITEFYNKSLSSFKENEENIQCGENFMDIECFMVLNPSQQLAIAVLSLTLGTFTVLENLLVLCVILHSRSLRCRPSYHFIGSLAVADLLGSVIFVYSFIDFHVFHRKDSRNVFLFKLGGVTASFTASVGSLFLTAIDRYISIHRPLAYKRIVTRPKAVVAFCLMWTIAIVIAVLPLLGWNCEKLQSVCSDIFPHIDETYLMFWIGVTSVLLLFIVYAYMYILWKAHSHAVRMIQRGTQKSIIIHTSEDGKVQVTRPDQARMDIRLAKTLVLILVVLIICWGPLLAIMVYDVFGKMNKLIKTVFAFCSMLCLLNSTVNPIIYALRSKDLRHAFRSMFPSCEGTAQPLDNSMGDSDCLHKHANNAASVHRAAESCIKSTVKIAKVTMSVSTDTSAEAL
assay.overview: cAMP biosensor assay with CB1 as target (DiscoveRx)
Assay type: cell-based
recorded.conditions: agonist format; 20 µM forskolin
measured.quantity: Curve top
Answer as a number with no unit attached.

CCCCCn1nc(C(=O)NC(C)(C)c2ccccc2)c2ccccc21 = 93.7
COC(=O)C(NC(=O)c1cn(CC2CCCCC2)c2ccccc12)C(C)(C)C (stereo not drawn) = 94.8
CCCCCn1nc(C(=O)NC(C(N)=O)C(C)C)c2ccccc21 (stereo not drawn) = 92.3
CCCCCn1cc(C(=O)c2cccc3ccccc23)c2ccccc21 = 97.6

What does the record list as Curve top for "O=C(c1cccc2ccccc12)c1nn(CCCCCF)c2ccccc12" ?
95.6

Also, CC(C)C(NC(=O)c1nn(CC2CCCCC2)c2ccccc12)C(N)=O (stereo not drawn) [AB-[…]] please.
94.8

Also, "O=C(c1cccc2ccccc12)c1cn(CCCCCF)c2ccccc12" please.
103

Also, "CCCCCn1c2ccccc2c2cc(C(=O)c3cccc4ccccc34)ccc21" please.
74.3

Also, CC(C)C(NC(=O)c1nn(Cc2ccc(F)cc2)c2ccccc12)C(N)=O (stereo not drawn) please.
97.4
